- TARGET OF ASSAY: T1, monomeric recombinant cynomologus monkey Notch3 extracellular domain (containing EGF like domains 1-12) … (cynomologus monkey)
- T1 construct: domain: EGF like domains 1-12; also called monomeric rcNotch3
- PROTOCOL SUMMARY: SPR BIAcore T100, antibody captured by anti-human IgG Fc, monomeric rcNotch3 analyte, 25 C
QUANTITY NAME: kon (M⁻¹ s⁻¹)
Give just the numeric value; M⁻¹ s⁻¹ need not be written.

Hu4F11-74 (antibody, human IgG1, kappa, V domains shown, Humanized, human IgG1 kappa; Hv3-23 A28T S31H T62S heavy + Kv2D-29 N28Y kappa) VH: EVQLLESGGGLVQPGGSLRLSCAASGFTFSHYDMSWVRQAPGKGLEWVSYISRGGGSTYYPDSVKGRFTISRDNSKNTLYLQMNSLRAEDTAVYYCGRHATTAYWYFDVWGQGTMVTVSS VL: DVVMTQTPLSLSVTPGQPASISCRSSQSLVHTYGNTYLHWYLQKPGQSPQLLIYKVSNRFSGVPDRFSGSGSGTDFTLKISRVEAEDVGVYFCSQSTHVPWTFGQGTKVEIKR: 900000

Continue with the binder presented below.
# kon of Hu4F11-78 (antibody, human IgG1, kappa, V domains shown, Humanized, human IgG1 kappa; Hv3-23 A28T S31H T62S heavy + Kv2D-29 N28Q kappa) VH: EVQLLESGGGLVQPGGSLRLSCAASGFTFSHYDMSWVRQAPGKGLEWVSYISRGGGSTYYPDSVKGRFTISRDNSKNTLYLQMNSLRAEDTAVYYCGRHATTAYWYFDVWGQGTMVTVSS VL: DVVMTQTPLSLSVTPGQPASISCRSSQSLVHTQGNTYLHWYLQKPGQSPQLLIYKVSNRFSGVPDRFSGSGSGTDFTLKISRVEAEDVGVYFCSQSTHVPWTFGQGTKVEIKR = 1.8e+06
